# System: Fusarium oxysporum
# Procedure Summary: Antifungal activity against Fusarium oxysporum assessed as growth inhibition at 900 ug/ml
# Assay type: functional
# Experimental Conditions: read-out: IZ
Measured Endpoint: zone of inhibition at 900 µg/mL
Be sure to follow the number with its unit.

// compound COc1ccc2c(OCCCN3CCN(Cc4cccnc4)CC3)c(-c3ccccc3)c(=O)oc2c1 , assay Fusarium oxysporum, zone of inhibition at 900 µg/mL value: 18.8 mm

// compound COc1ccc2c(OCCCN3CCN(Cc4ccc[nH]4)CC3)c(-c3ccccc3)c(=O)oc2c1 , assay Fusarium oxysporum, zone of inhibition at 900 µg/mL value: 20 mm

// compound COc1ccc2c(OCCCN3CCN(Cc4ccc(Br)cc4)CC3)c(-c3ccccc3)c(=O)oc2c1 , assay Fusarium oxysporum, zone of inhibition at 900 µg/mL value: 14.2 mm

// compound CCCOc1ccc(CN2CCN(CCCOc3c(-c4ccccc4)c(=O)oc4cc(OC)ccc34)CC2)cc1 , assay Fusarium oxysporum, zone of inhibition at 900 µg/mL value: 12.1 mm

// compound CCC(C)n1ncn(-c2ccc(N3CCN(c4ccc(OCC5COC(Cn6cncn6)(c6ccc(Cl)cc6Cl)O5)cc4)CC3)cc2)c1=O (configuration not stated) [ITRACONAZOLE] , assay Fusarium oxysporum, zone of inhibition at 900 µg/mL value: 20 mm

// compound COc1ccc2c(OCCCN3CCN(Cc4ccc(Cl)cc4Cl)CC3)c(-c3ccccc3)c(=O)oc2c1 , assay Fusarium oxysporum, zone of inhibition at 900 µg/mL value: 13.6 mm

// compound COc1ccc2c(OCCCN3CCN(Cc4ccc(F)cc4F)CC3)c(-c3ccccc3)c(=O)oc2c1 , assay Fusarium oxysporum, zone of inhibition at 900 µg/mL value: 16.9 mm

###

# Tested on: Staphylococcus aureus
# Procedure Summary: Antibacterial activity against Staphylococcus aureus assessed as growth inhibition at 600 ug/ml by NCCLS […] method
# Format: functional
# Experimental Conditions: read-out: IZ
Please mark T if the recorded zone of inhibition at 600 µg/mL is equal to or greater than 6 mm, and F if it falls below.

Task: Please check the record COc1ccc2c(OCCCN3CCN(Cc4ccc(F)cc4F)CC3)c(-c3ccccc3)c(=O)oc2c1 and state if its zone of inhibition at 600 µg/mL is at or above 6 mm.
Output: F

Task: Please check the record COc1ccc2c(OCCCN3CCN(Cc4ccc[nH]4)CC3)c(-c3ccccc3)c(=O)oc2c1 and state if its zone of inhibition at 600 µg/mL is at or above 6 mm.
Output: T

Task: Please check the record COc1ccc2c(OCCCN3CCN(Cc4ccccc4)CC3)c(-c3ccccc3)c(=O)oc2c1 and state if its zone of inhibition at 600 µg/mL is at or above 6 mm.
Output: T

Task: Please check the record COc1ccc2c(OCCCN3CCN(Cc4ccc(Br)cc4)CC3)c(-c3ccccc3)c(=O)oc2c1 and state if its zone of inhibition at 600 µg/mL is at or above 6 mm.
Output: F

Task: Please check the record CN[C@@H]1[C@H](O[C@H]2[C@H](O[C@H]3[C@H](O)[C@@H](O)[C@H](N=C(N)N)[C@@H](O)[C@@H]3N=C(N)N)O[C@@H](C)[C@]2(O)C=O)O[C@@H](CO)[C@H](O)[C@H]1O [STREPTOMYCIN] and state if its zone of inhibition at 600 µg/mL is at or above 6 mm.
Output: T

Task: Please check the record COc1ccc2c(OCCCN3CCN(Cc4ccc(Cl)cc4Cl)CC3)c(-c3ccccc3)c(=O)oc2c1 and state if its zone of inhibition at 600 µg/mL is at or above 6 mm.
Output: T
